Assay: Inhibition of DNA oligonucleotide binding to HCV NS3 helicase
Design: species or system Hepacivirus hominis
Here, each record is paired with measured IC50 data.

{"smiles-str": "O=C(CCNS(=O)(=O)c1ccc(Cl)cc1)N1CCN(C(=O)CCNS(=O)(=O)c2ccc(Cl)cc2)CC1", "IC50": "> 1000 µM"}
{"smiles-str": "O=S(=O)(NCCCN1CCN(CCCNS(=O)(=O)c2ccc(Cl)cc2)CC1)c1ccc(Cl)cc1", "IC50": "> 1000 µM"}
{"smiles-str": "CC(C)(C)c1ccc(S(=O)(=O)NCCCN2CCN(CCCNS(=O)(=O)c3ccc(C(C)(C)C)cc3)CC2)cc1", "IC50": "> 1000 µM"}
{"smiles-str": "CC(C)(C)c1ccc(S(=O)(=O)NCCCN2CCN(CCCNS(=O)(=O)c3ccc(-c4ccccc4)cc3)CC2)cc1", "IC50": "200 µM"}
